Test: AUC in BALB/c mouse at 10 mg/kg, po measured up to 24 hrs by LC-MS/MS analysis
Assay type: ADME, organism-based
Set-up: route oral, dose 10 mg/kg, time <=24
Details: in vivo

{"smiles.text": "CC1(C)C(=O)N(Cc2c(F)cccc2Cl)c2cc(C(=O)NCc3c(F)cc(F)cc3F)ccc21", "AUC at 24 h": "2090 ng·h/mL"}

----------
Molecular target: Stimulator of interferon genes protein (Homo sapiens, UniProt Q86WV6)
Sequence (Q86WV6 whole entry): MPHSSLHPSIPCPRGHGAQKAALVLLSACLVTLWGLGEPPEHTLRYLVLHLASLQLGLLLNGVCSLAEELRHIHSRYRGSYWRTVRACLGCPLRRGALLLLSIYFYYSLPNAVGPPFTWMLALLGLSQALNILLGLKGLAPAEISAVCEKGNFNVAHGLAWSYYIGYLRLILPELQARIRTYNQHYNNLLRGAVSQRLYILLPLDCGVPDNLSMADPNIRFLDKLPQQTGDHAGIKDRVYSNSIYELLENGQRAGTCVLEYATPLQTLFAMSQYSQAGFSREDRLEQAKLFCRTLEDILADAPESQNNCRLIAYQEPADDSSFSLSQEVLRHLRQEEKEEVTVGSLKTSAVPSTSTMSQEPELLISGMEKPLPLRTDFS
Assay: Activation of wild-type human STING expressed in HEK293T cells assessed as IRF3 reporter activation at 1 uM measured after 20 hrs by luciferase reporter gene assay
Type: cell-based
Measured Activity values are reported for all entries that follow.
measurement.kind: Activity

{"compound": "O=C(NCc1c(F)cc(F)cc1F)c1ccc2c(n1)N(Cc1cc(F)cc(F)c1)C(=O)CC2", "measurement.kind": "Activity", "obs.value": "5%"}
{"compound": "O=C(NCc1c(F)cc(F)cc1F)c1cnc2c(c1)N(Cc1cc(F)cc(F)c1)C(=O)CO2", "measurement.kind": "Activity", "obs.value": "3%"}
{"compound": "CC1Oc2ncc(C(=O)NCc3c(F)cc(F)cc3F)cc2N(Cc2cc(F)cc(F)c2)C1=O (racemic)", "measurement.kind": "Activity", "obs.value": "6%"}
{"compound": "COC1(C)C(=O)N(Cc2c(F)cccc2Cl)c2cc(C(=O)NCc3c(F)cc(F)cc3F)ccc21 (racemic)", "measurement.kind": "Activity", "obs.value": "20%"}
